assay-system: T1, CD2 cytoplasmic region (CD2221-327) (human, UniProt P06729 245-351)
T1 construct: range 221-327; Yeast two-hybrid bait expressed from vector pEG202; also called CD2 cytoplasmic tail; human CD2 cytoplasmic segment amino acids 221-327
T1 sequence (looked up): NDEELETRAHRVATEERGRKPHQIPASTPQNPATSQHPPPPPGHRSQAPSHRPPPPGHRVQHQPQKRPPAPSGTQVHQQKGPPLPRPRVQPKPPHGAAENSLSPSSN
protocol-notes: yeast two-hybrid
result-type: binding result

CD2BP2 Y312A (other, Yeast two-hybrid prey) AEEELETPTPTQRGEAESRGDGLVDVMWEYKWENTGDAELYGPFTSAQMQTWVSEGAFPDGVYCRKLDPPGGQFYNSKRIDFDLYT; no binding
CD2BP2256-341 (yeast two-hybrid clone) (other, Yeast two-hybrid prey in pJG4-5; vector fusion part not described; also called shortest functional clone) AEEELETPTPTQRGEAESRGDGLVDVMWEYKWENTGDAELYGPFTSAQMQTWVSEGYFPDGVYCRKLDPPGGQFYNSKRIDFDLYT; binds
CD2BP2256-341Δ297-313 (other, Yeast two-hybrid prey; vector fusion part not described; also called deletion clone lacking those 17 residues) AEEELETPTPTQRGEAESRGDGLVDVMWEYKWENTGDAELYPDGVYCRKLDPPGGQFYNSKRIDFDLYT; no binding
